Data provenance: ChEMBL document CHEMBL1201862

For each of the compounds below, state its GI50.
- Test system: SNB-75
- Protocol Details: NCI tumour cell line growth inhibition, 48 h
Activity calls are given as the source filed them. No stated cut-off is given here; in the data, active = GI50 up to about 1.1 µM and inactive = higher.

Data request: What value of GI50 has been reported for the following compound? "COc1c(-c2ccc3c(c2)OCO3)oc2cc3c(c(OC)c2c1=O)OCO3"
Data returned: 16.3 µM (inactive)

Data request: What value of GI50 has been reported for the following compound? "Cc1nc2cccc([N+](=O)[O-])c2n1CCCN(C)C"
Data returned: > 100 µM (inactive)

Data request: What value of GI50 has been reported for the following compound? CN1CC[C@]2(C)c3c(O)cccc3CC3CCCC1C32C (stereo partly specified)
Data returned: 45.4 µM (inactive)

Data request: What value of GI50 has been reported for the following compound? "Cc1ccc2c(c1)CC1(Cc3cc(C)ccc3C1=O)C2=O"
Data returned: > 100 µM (inactive)

Data request: What value of GI50 has been reported for the following compound? "CC(=O)Oc1ccc2c(c1)oc1c3ccc(OC(C)=O)cc3n(C)c(=O)c21"
Data returned: 1.14 µM (inactive)

Data request: What value of GI50 has been reported for the following compound? COC(=O)[C@]1(C)CCCC2(C)C3=C(CCC21)CC1(CC3)SCCS1 (stereo partly specified)
Data returned: > 10 µM (inactive)

Data request: What value of GI50 has been reported for the following compound? COC(=O)C1=C(OC(=O)/C(=C/c2ccccc2)c2ccccc2)C(C(=O)OC)[C@@]2(O)[C@@H](C(=O)OC)[C@H](C)C[C@@H]1[C@@H]2C(=O)OC (stereo partly specified)
Data returned: > 100 µM (inactive)

Data request: What value of GI50 has been reported for the following compound? CC(C)(C)OC(=O)C1CC[C@@H](CC(=O)Oc2ccc([N+](=O)[O-])cc2)N1 (stereo partly specified)
Data returned: > 100 µM (inactive)

Data request: What value of GI50 has been reported for the following compound? CCC1OC2C(CC=C(C)C)=C3OC(C)(O)C(C)(CC)C(OC(C)=O)C3=C3OC(=O)C=C1C32 (stereo unspecified)
Data returned: 23.6 µM (inactive)

Data request: What value of GI50 has been reported for the following compound? CC1(C)CC(=O)C2=C(C1)NC(SCC(=O)O)=C(C#N)C2c1ccc(Br)cc1 (stereo unspecified)
Data returned: > 100 µM (inactive)

Data request: What value of GI50 has been reported for the following compound? "Cc1ccccc1NC(=O)C(=O)CC(=O)c1c(C)[n+]([O-])c2ccccc2[n+]1[O-]"
Data returned: 40 µM (inactive)

Data request: What value of GI50 has been reported for the following compound? "Cc1cc2oc(C)c(S(=O)(=O)NC(=O)Nc3ccc(Cl)cc3)c(=O)c2c(=O)o1"
Data returned: > 100 µM (inactive)

Data request: What value of GI50 has been reported for the following compound? "O=C(O/N=C1/CCC/C1=C\c1ccccc1)c1ccc([N+](=O)[O-])cc1"
Data returned: 31.6 µM (inactive)

Data request: What value of GI50 has been reported for the following compound? "O=C(CNC(=O)OCc1ccccc1)Oc1ccccc1"
Data returned: > 100 µM (inactive)

Data request: What value of GI50 has been reported for the following compound? "COc1cc(/C=C(\NC(=O)c2ccccc2)c2nc3ccc4c(c3[nH]2)C(=O)c2ccccc2C4=O)cc(OC)c1OC"
Data returned: 22.9 µM (inactive)

Data request: What value of GI50 has been reported for the following compound? CN(C)C(C1=C(O)C(c2ccccc2)N(c2ccccc2)C1=O)N1CCOCC1 (stereo unspecified)
Data returned: > 10 µM (inactive)

Data request: What value of GI50 has been reported for the following compound? COC(=O)c1c2c(cc3c1CC1(Cc4cc5c(c(C(C)=O)c4C1)CCC5)C3)CCC2 (stereo unspecified)
Data returned: 24.6 µM (inactive)

Data request: What value of GI50 has been reported for the following compound? "N#Cc1nc(C(=O)c2ccccc2)oc1N"
Data returned: 0.052 µM (active)

Data request: What value of GI50 has been reported for the following compound? "COC(=O)[C@@H]1C[C@@]2(C3C=CN(C(=O)C(F)(F)F)C=C3)c3ccccc3N(C(=O)C(F)(F)F)[C@H]2N1C(=O)OC"
Data returned: 20.1 µM (inactive)

Data request: What value of GI50 has been reported for the following compound? "COc1cc(-c2cc(CCC(=O)Nc3ccccc3[N+](=O)[O-])n(-c3ccc([N+](=O)[O-])cc3[N+](=O)[O-])n2)ccc1O"
Data returned: 89.9 µM (inactive)

Data request: What value of GI50 has been reported for the following compound? COc1nc2c(c(=O)n1C)NC(C(O)C(O)CO)C=N2 (stereo unspecified)
Data returned: > 10 µM (inactive)

Data request: What value of GI50 has been reported for the following compound? CCCCCCC1OC23OC1CCC2C(O)CCC3O (stereo unspecified)
Data returned: > 100 µM (inactive)

Data request: What value of GI50 has been reported for the following compound? "CC(=O)OC(/C=C/c1ccccc1)=C(OC(C)C)/C1=C(\c2ccccc2)SCCCSC1=O"
Data returned: 52.6 µM (inactive)

Data request: What value of GI50 has been reported for the following compound? CC(Cc1ccc(O)cn1)(NC(=O)c1ccccc1)C(=O)O (stereo unspecified)
Data returned: 40.4 µM (inactive)

Data request: What value of GI50 has been reported for the following compound? "COc1ccc(/C=N/n2c(-c3ccccc3)n[nH]c2=O)c(OC)c1"
Data returned: 27 µM (inactive)

Data request: What value of GI50 has been reported for the following compound? "Cc1nn(C)c2c1C(=O)N(C)CC(=O)N2C"
Data returned: > 100 µM (inactive)
